molecular target: FGFR1 (Homo sapiens, UniProt P11362); assay: Caliper mobility shift kinase assay with recombinant FGFR1, also at varied ATP concentrations; type: biochemical
Sequence (P11362 22-822): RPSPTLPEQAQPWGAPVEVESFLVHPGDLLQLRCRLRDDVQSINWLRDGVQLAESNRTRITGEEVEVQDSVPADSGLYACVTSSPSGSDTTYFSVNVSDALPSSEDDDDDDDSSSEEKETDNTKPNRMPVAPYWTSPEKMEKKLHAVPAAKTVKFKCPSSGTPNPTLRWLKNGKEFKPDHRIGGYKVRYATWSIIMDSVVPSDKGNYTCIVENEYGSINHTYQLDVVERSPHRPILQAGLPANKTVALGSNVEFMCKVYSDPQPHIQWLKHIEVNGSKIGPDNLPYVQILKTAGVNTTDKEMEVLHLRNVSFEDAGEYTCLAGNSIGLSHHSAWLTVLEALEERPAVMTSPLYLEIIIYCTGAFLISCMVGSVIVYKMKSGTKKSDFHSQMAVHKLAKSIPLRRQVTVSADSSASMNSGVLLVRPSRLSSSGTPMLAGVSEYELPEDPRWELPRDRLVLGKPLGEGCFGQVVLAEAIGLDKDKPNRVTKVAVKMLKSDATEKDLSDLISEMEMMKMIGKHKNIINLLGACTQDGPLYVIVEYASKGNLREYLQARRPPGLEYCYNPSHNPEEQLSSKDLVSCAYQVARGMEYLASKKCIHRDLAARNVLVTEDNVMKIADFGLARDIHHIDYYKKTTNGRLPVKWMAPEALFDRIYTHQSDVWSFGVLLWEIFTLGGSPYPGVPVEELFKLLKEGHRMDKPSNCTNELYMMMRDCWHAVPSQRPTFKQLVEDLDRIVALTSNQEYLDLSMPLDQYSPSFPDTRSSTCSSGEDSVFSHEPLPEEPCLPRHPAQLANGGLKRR
outcomeMeasure: IC50 (µM)

>>> valuemeasured("CC(Cc1ccc(O)c(O)c1)C(C)Cc1ccc(O)c(O)c1 (stereo not shown) [NDGA, nordihydroguaiaretic acid]")
24.5

###

Measured IC50 values are reported for all entries that follow.
biological target: FGFR1 (Homo sapiens); test: Caliper mobility shift kinase assay with recombinant FGFR1, ATP at Km ([…]); format: biochemical
outcomeMeasure: IC50

>>> valuemeasured("O=C1/C(=C/c2ccc(O)c(O)c2)CSC/C1=C\\c1ccc(O)c(O)c1 [Ad23]")
"600 nM"
>>> valuemeasured("O=C1/C(=C/c2ccc(O)c(O)c2)COC/C1=C\\c1ccc(O)c(O)c1 [Af23]")
"1400 nM"

Taken from paper PMC4410475.
